# studySystem: 5-hydroxytryptamine receptor 2C (Homo sapiens, UniProt P28335)
# Sequence (P28335 whole entry): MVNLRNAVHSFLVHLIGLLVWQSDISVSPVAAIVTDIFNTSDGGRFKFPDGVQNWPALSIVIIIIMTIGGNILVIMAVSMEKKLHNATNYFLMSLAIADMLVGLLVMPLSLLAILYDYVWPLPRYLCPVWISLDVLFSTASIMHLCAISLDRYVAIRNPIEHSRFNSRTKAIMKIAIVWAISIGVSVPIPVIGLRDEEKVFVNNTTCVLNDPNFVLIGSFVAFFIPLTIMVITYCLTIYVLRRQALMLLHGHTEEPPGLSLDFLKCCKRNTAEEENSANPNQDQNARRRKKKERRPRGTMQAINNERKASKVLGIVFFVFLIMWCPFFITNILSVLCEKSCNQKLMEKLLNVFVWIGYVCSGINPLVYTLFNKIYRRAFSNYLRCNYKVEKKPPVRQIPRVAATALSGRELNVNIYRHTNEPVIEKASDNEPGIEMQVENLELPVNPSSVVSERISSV
# methodSummary: Agonist activity at human 5HT2C receptor stably expressed in Flp-In-T-REx-293 cells assessed as increase in Gq-mediated calcium flux by Fluo-4 direct dye based FLIPR Tetra assay
# Type: functional, cell-based
# conditionDetails: read-out: EC50
observable: pEC50
One number for each entry, as −log10 of the molar value.

Known pEC50 results, listed for orientation:
Fc1ccc2[nH]c3c(c2c1)CCNC3C(c1ccccc1)c1ccccc1 (centres undefined) : 6.02
Fc1ccc2[nH]c3c(c2c1)CCNC3c1cc2ccccc2s1 (centres undefined) : 6.04
Fc1ccc2[nH]c3c(c2c1)CCNC3c1ccccc1F (centres undefined) : 6.00

Proceeding to the next molecule to report its pEC50.
Input line: Field request: pEC50 | item: Fc1ccc2[nH]c3c(c2c1)CCNC3c1cccnc1F (centres undefined)
Output line: 5.40

----------
# studySystem: 5-hydroxytryptamine receptor 2A (Homo sapiens, UniProt P28223)
# Sequence (P28223 whole entry): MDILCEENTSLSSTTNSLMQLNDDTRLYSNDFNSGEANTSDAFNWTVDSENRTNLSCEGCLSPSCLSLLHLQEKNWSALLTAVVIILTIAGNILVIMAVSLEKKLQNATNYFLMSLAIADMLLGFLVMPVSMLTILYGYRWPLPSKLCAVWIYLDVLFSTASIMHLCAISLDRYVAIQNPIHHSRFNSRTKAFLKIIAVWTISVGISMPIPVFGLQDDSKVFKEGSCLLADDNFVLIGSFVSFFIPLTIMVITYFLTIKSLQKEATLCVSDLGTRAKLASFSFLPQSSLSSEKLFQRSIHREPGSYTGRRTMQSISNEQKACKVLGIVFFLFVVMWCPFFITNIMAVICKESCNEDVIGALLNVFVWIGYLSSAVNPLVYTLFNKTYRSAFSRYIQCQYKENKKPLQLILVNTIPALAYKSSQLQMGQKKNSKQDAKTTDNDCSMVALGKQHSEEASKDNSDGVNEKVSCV
# methodSummary: Agonist activity at human 5HT2A receptor stably expressed in Flp-In-T-REx-293 cells assessed as maximal Gq-mediated calcium flux by Fluo-4 direct dye based FLIPR Tetra assay relative to control
# Assay type: functional, cell-based
# conditionDetails: filed as agonist
Label key: Condition met means Emax under 80%; Condition not met means Emax of 80% or more.

A selection of reference data follows.
COc1cc(OC)c(C2NCCc3c2[nH]c2ccc(F)cc32)cc1OC (stereo not drawn) : Condition not met
Clc1ccc2[nH]c3c(c2c1)CCNC3C1CCOCC1 (stereo not drawn) : Condition met
COc1ccc(C2NCCc3c2[nH]c2ccc(O)cc32)c(O)c1 (stereo not drawn) : Condition not met
Cc1ccc(C2NCCc3c2[nH]c2ccc(Cl)cc32)cc1 (stereo not drawn) : Condition not met
CCC1NCCc2c1[nH]c1ccc(O)cc21 (stereo not drawn) : Condition not met

Input line: Determine whether this compound shows Emax lower than 80% (ties excluded): Oc1c(Cl)cccc1C1NCCc2c1[nH]c1ccc(F)cc21 (stereo not drawn)
Output line: Condition met

Input line: Please give the result for COc1ccc(C2NCCc3c2[nH]c2ccc(F)cc32)cc1OC (stereo not drawn) too.
Output line: Condition not met

----------
# studySystem: 5-hydroxytryptamine receptor 2B (Homo sapiens, UniProt P41595)
# Sequence (P41595 whole entry): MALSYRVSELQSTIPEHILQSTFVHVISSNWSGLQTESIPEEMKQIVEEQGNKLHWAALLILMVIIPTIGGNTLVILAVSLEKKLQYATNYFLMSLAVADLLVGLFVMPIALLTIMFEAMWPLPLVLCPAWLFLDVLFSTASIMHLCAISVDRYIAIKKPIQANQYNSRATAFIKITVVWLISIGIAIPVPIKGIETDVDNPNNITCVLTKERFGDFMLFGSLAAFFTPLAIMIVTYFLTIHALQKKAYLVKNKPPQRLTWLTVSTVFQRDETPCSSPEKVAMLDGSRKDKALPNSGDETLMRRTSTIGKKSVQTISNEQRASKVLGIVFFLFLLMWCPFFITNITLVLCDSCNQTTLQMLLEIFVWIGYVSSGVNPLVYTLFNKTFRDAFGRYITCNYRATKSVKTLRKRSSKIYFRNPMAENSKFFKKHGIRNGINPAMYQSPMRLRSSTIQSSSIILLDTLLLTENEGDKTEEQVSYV
# methodSummary: Agonist activity at human 5HT2B receptor stably expressed in Flp-In-T-REx-293 cells assessed as maximal Gq-mediated calcium flux by Fluo-4 direct dye based FLIPR Tetra assay relative to control
# Format: functional, cell-based
# conditionDetails: filed as agonist
Assign Emax to each entry below.
Give bare numbers, in %.

Oc1ccc(Cl)cc1C1NCCc2c1[nH]c1ccc(Cl)cc21 (stereo unspecified) : 111
Oc1ccc(O)c(C2NCCc3c2[nH]c2ccc(F)cc32)c1 (stereo unspecified) : 102
Oc1ccc(Br)cc1C1NCCc2c1[nH]c1ccc(F)cc21 (stereo unspecified) : 111

Would you be so kind as to report Emax for each listed record?
1. Oc1c(Cl)cccc1C1NCCc2c1[nH]c1ccc(Cl)cc21 (stereo unspecified)
2. COc1ccc(C2NCCc3c2[nH]c2ccc(F)cc32)cc1OC (stereo unspecified)
3. Cc1ccc(C2NCCc3c2[nH]c2ccc(Cl)cc32)c(C)c1 (stereo unspecified)
4. Oc1cc(Br)ccc1C1NCCc2c1[nH]c1ccc(Cl)cc21 (stereo unspecified)

Output line:
1: 95.9; 2: 89.8; 3: 89.4; 4: 106

----------
# studySystem: UniProtKB P28223
# methodSummary: Agonist activity at human 5HT2A receptor stably expressed in Flp-In-T-REx-293 cells assessed as increase in Gq-mediated calcium flux by Fluo-4 direct dye based FLIPR Tetra assay
Label key: YES means EC50 under 300 nM; NO means EC50 of 300 nM or more.

Oc1ccc2[nH]c3c(c2c1)CCNC3c1ccccc1 (configuration not stated) : NO
Fc1ccc2[nH]c3c(c2c1)CCNC3Cc1ccccc1 (configuration not stated) : NO
Cc1noc(C)c1C1NCCc2c1[nH]c1ccc(Cl)cc21 (configuration not stated) : NO
Oc1ccc2[nH]c3c(c2c1)CCNC3C1CCCCC1 (configuration not stated) : YES
Fc1ccc2[nH]c3c(c2c1)CCNC3c1ccc2ccccc2c1 (configuration not stated) : YES

Input line: Determine whether this compound shows EC50 lower than 300 nM (ties excluded): Clc1ccc2[nH]c3c(c2c1)CCNC3C1CCOCC1 (configuration not stated)
Output line: NO

----------
# studySystem: 5-hydroxytryptamine receptor 2C (Homo sapiens, UniProt P28335)
# methodSummary: Agonist activity at human 5HT2C receptor stably expressed in Flp-In-T-REx-293 cells assessed as increase in Gq-mediated calcium flux by Fluo-4 direct dye based FLIPR Tetra assay
# Assay type: functional, cell-based
# conditionDetails: read-out: EC50
Assign EC50 to each entry below.
Give bare numbers, in nM.

Known EC50 results, listed for orientation:
Fc1ccc2[nH]c3c(c2c1)CCNC3c1ccccc1 (centres undefined) : 22.4
COc1ccccc1C1NCCc2c1[nH]c1ccc(Cl)cc21 (centres undefined) : 284
Cn1ccnc1C1NCCc2c1[nH]c1ccc(O)cc21 (centres undefined) : 97
Clc1ccc2[nH]c3c(c2c1)CCNC3c1cc2ccccc2s1 (centres undefined) : 39
Oc1ccc2[nH]c3c(c2c1)CCNC3C1CCCCC1 (centres undefined) : 959
Clc1ccc2[nH]c3c(c2c1)CCNC3c1ccc2ccccc2c1 (centres undefined) : 24.5

Would you be so kind as to report EC50 for each listed record?
1. Oc1ccc2[nH]c3c(c2c1)CCNC3c1ccc(Br)cc1O (centres undefined)
2. COc1ccc2cc(C3NCCc4c3[nH]c3ccc(Cl)cc43)ccc2c1 (centres undefined)
3. Oc1cc(Cl)ccc1C1NCCc2c1[nH]c1ccc(F)cc21 (centres undefined)

Output line:
173
1060
209

----------
Assign pEC50 to each entry below.
# studySystem: 5-hydroxytryptamine receptor 2A (Homo sapiens, UniProt P28223)
# methodSummary: Agonist activity at human 5HT2A receptor stably expressed in Flp-In-T-REx-293 cells assessed as increase in Gq-mediated calcium flux by Fluo-4 direct dye based FLIPR Tetra assay
Numbers only, as −log10 of the molar value.

Known pEC50 results, listed for orientation:
Oc1c(Cl)cccc1C1NCCc2c1[nH]c1ccc(Cl)cc21 (stereo unspecified) : 6.47
COc1ccccc1C1NCCc2c1[nH]c1ccc(Cl)cc21 (stereo unspecified) : 6.68
Oc1ccc(C2NCCc3c2[nH]c2ccc(Cl)cc32)cc1 (stereo unspecified) : 7.03
Oc1cc(Br)ccc1C1NCCc2c1[nH]c1ccc(Cl)cc21 (stereo unspecified) : 6.27
Clc1ccc2[nH]c3c(c2c1)CCNC3c1cc2ccccc2s1 (stereo unspecified) : 6.82

Proceeding to the next compound to report its pEC50.
Input line: Field request: pEC50 | item: Fc1ccc2[nH]c3c(c2c1)CCNC3c1ccccc1F (stereo unspecified)
Output line: 6.52

----------
# studySystem: 5-hydroxytryptamine receptor 2A (Homo sapiens)
# methodSummary: Agonist activity at human 5HT2A receptor stably expressed in Flp-In-T-REx-293 cells assessed as increase in Gq-mediated calcium flux by Fluo-4 direct dye based FLIPR Tetra assay
observable: pEC50
Answers are plain numbers, as −log10 of the molar value.

Known pEC50 results, listed for orientation:
Oc1ccc2[nH]c3c(c2c1)CCNC3CCc1ccccc1 (stereo not given) : 6.86
COc1ccc(C2NCCc3c2[nH]c2ccc(F)cc32)cc1OC (stereo not given) : 6.60
Oc1ccc(C2NCCc3c2[nH]c2ccc(O)cc32)cc1 (stereo not given) : 6.80

Proceeding to the next compound to report its pEC50.
Input line: Could you share what pEC50 was measured for Cc1cc(C2NCCc3c2[nH]c2ccc(Cl)cc32)sc1Br (stereo not given) , tested on 5-hydroxytryptamine receptor 2A (Homo sapiens)?
Output line: 6.11

----------
# studySystem: 5-hydroxytryptamine receptor 2C (Homo sapiens, UniProt P28335)
# Sequence (P28335 whole entry): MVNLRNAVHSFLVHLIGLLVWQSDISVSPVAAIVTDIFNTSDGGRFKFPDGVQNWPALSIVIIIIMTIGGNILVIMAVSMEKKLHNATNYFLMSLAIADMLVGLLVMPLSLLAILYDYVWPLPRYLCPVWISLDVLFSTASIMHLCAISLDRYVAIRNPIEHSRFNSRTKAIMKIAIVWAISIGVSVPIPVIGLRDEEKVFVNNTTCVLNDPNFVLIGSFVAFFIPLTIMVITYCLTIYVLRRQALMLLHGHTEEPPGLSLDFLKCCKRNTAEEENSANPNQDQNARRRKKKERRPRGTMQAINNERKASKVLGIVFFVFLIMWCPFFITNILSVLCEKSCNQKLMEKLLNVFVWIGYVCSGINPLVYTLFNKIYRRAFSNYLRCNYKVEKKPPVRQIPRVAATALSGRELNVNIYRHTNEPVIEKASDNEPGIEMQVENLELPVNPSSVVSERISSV
# methodSummary: Agonist activity at human 5HT2C receptor stably expressed in Flp-In-T-REx-293 cells assessed as increase in Gq-mediated calcium flux by Fluo-4 direct dye based FLIPR Tetra assay
# Type: functional, cell-based
# conditionDetails: read-out: EC50
Assign EC50 to each entry below.
Answers are plain numbers, in nM.

Known EC50 results, listed for orientation:
Fc1ccc2[nH]c3c(c2c1)CCNC3C1CCOCC1 (centres undefined) : 891
Oc1cccc(C2NCCc3c2[nH]c2ccc(Cl)cc32)c1 (centres undefined) : 688
Clc1ccc2[nH]c3c(c2c1)CCNC3c1ccc(Cl)s1 (centres undefined) : 44
Oc1ccccc1C1NCCc2c1[nH]c1ccc(Cl)cc21 (centres undefined) : 15.3
Cc1cccc(C2NCCc3c2[nH]c2ccc(O)cc32)c1 (centres undefined) : 191
Oc1ccc(Br)cc1C1NCCc2c1[nH]c1ccc(Cl)cc21 (centres undefined) : 1320
CCC1NCCc2c1[nH]c1ccc(O)cc21 (centres undefined) : 61
Fc1ccc2[nH]c3c(c2c1)CCNC3c1ccccc1Br (centres undefined) : 2100

Would you be so kind as to report EC50 for each listed record?
1. Clc1ccc2[nH]c3c(c2c1)CCNC3c1ccccc1Cl (centres undefined)
2. Cc1ccc(C2NCCc3c2[nH]c2ccc(Cl)cc32)c(C)c1 (centres undefined)
3. Fc1ccc2[nH]c3c(c2c1)CCNC3CCc1ccccc1 (centres undefined)

Output line:
12.6
407
467
